- System: SEM cells
- test: cell viability relative to DMSO control; higher = less cytotoxic
- testParameters: RPMI 5 mM glucose + 10% FBS; 48 h; 0.000781 µM
Form field: cell viability (one value per entry).
The reply should contain only the number, in %.

Illustrative cases are given below, each with its answer.
compound: COc1cc2c(cc1-c1c(C)noc1C)ncc1[nH]c(=O)n([C@H](C)c3ccccn3)c12
observable: cell viability
reported: 117
//
compound: Cc1c(CN2CCN(C(=O)[C@H](C)O)CC2)sc2c(N3CCOCC3)nc(-c3cnc(N)nc3)nc12
observable: cell viability
reported: 96.8
//
compound: CC[C@H](CC#N)OC(=O)N[C@@H](C)c1cccc(NC(=O)Nc2ccc(-c3cnco3)c(OC)c2)c1
observable: cell viability
reported: 108

Prompt: // returns reported cell viability for input CC(C)[C@@H](N(CCCN)C(=O)C1=CC=C(C)C=C1)C/2=N/C3=CC(=CC=C3C(=O)N2CC4=CC=CC=C4)Cl
Response: 103

Prompt: // returns reported cell viability for input C[C@](O)(COc1ccc(C#N)cc1)C(=O)Nc1ccc(C#N)c(C(F)(F)F)c1
Response: 84.9

Prompt: // returns reported cell viability for input CCC1(C)CC(=O)NC1=O (stereo not given)
Response: 113

Prompt: // returns reported cell viability for input CN[S+](=O)([O-])Cc1ccc2[nH]cc(CCN(C)C)c2c1
Response: 89.2

* * *

- Test system: SEM cells
- test: cell viability relative to DMSO control; higher = less cytotoxic
- testParameters: RPMI 5 mM glucose + 10% FBS; 48 h; 0.000781 µM
observable: cell viability (%)
The reply should contain only the number, in %.

Illustrative cases are given below, each with its answer.
compound: CC1=CC=CC=C1N2\C(=N/C3=C(C(=CC=C3)C)C2=O)C[N]4C=NC5=C4N=CN=C5N
readoutUnits: %
cell viability: 90.8
--
compound: CC1=C(/C=C/C(C)=C/C=C/C(C)=C/C=C/C=C(C)/C=C/C=C(C)/C=C/C2=C(C)CCCC2(C)C)C(C)(C)CCC1
readoutUnits: %
cell viability: 93.1
--
compound: C[C@@H](NC1=CC=CC=C1C(O)=O)C/2=C/C(=C\N3C(=O)/C=C(\N=C23)N4CCOCC4)C
readoutUnits: %
cell viability: 89.1
--
compound: COc1cc2c(cc1OC)C1CC(=O)C(CC(C)C)CN1CC2 (centres undefined)
readoutUnits: %
cell viability: 116
--
compound: CCC(C)SSc1ncc[nH]1 (centres undefined)
readoutUnits: %
cell viability: 93.9

Prompt: // returns reported cell viability for input CN(C)CCOc1cc(-c2cn[nH]c2)ccc1NC(=O)C1COc2ccccc2O1 (centres undefined)
Response: 101

Prompt: // returns reported cell viability for input O=C(OC)[C@]12CC[C@@]3(C)[C@]4(C)CC[C@H]5[C@@](C)(C)C(=O)C(=C[C@]5(C)C4=CC(=O)[C@@H]3[C@@H]2C[C@](C)(C)CC1)C#N
Response: 101

Prompt: // returns reported cell viability for input C\C1=C\C(=O)OC2=C1C=CC(=C2)O
Response: 98.1

Prompt: // returns reported cell viability for input CCCCCOC(=O)NC\1=N\C(=O)N(\C=C1F)[C@@H]2O[C@H](C)[C@@H](O)[C@H]2O
Response: 104

* * *

Form field: cell viability (one value per entry).
- Test system: P12-Ichikawa
- test: cell viability relative to DMSO control; higher = less cytotoxic
- testParameters: RPMI 5 mM glucose + 10% dialyzed FBS; 48 h; 0.0211 µM
The reply should contain only the number, in %.

Illustrative cases are given below, each with its answer.
compound: COc1cc2c(cc1-c1c(C)noc1C)ncc1[nH]c(=O)n([C@H](C)c3ccccn3)c12
systemName: P12-Ichikawa
observable: cell viability
readoutUnits: %
reported: 104
//
compound: CC(=O)Nc1ccc(OC[C@](C)(O)C(=O)Nc2ccc([N+](=O)[O-])c(C(F)(F)F)c2)cc1
systemName: P12-Ichikawa
observable: cell viability
readoutUnits: %
reported: 78.2
//
compound: CN(C)c1ccc(O)c2c1C[C@H]1C[C@H]3[C@H](N(C)C)C(O)=C(C(N)=O)C(=O)[C@@]3(O)C(O)=C1C2=O
systemName: P12-Ichikawa
observable: cell viability
readoutUnits: %
reported: 118
//
compound: CC(=O)O[C@H]1C[C@@H]2CC[C@@H]3[C@H](CC[C@@]4(C)[C@H]3C[C@H]([N+]3(C)CCCCC3)[C@@H]4OC(C)=O)[C@@]2(C)C[C@@H]1[N+]1(C)CCCCC1
systemName: P12-Ichikawa
observable: cell viability
readoutUnits: %
reported: 124
//
compound: N=C(CCSCc1csc(N=C(N)N)n1)N[S+](N)(=O)[O-]
systemName: P12-Ichikawa
observable: cell viability
readoutUnits: %
reported: 91

Prompt: // returns reported cell viability for input O=C([O-])C(O)Cc1ccc(O)c(O)c1 (stereo not drawn)
Response: 95.5

Prompt: // returns reported cell viability for input O=NN(CCCl)C(=O)NCCCl
Response: 99.7

Prompt: // returns reported cell viability for input COC1=CC2=NC=CC(=C2C=C1)OC3=CN=C(NC(=O)C/4=C(C)/N(CC(C)(C)O)N(C4=O)C5=CC=CC=C5)C=C3
Response: 98.5

* * *

- System: SEM cells
- test: cell viability relative to DMSO control; higher = less cytotoxic
- testParameters: RPMI 5 mM glucose + 10% FBS; 48 h; 15.4 µM
Form field: cell viability (one value per entry).
The reply should contain only the number, in %.

Illustrative cases are given below, each with its answer.
compound: CC[C@H](CC#N)OC(=O)N[C@@H](C)c1cccc(NC(=O)Nc2ccc(-c3cnco3)c(OC)c2)c1
cell viability (%): 30.2
--
compound: COc1cc2nc(N(C)CCCNC(=O)C3CCCO3)nc(N)c2cc1OC (stereo not drawn)
cell viability (%): 76.4
--
compound: COC1=C(N2CCNC(C)C2)C(=CC3=C1N(\C=C(C(O)=O)/C3=O)C4CC4)F (stereo not drawn)
cell viability (%): 37.9
--
compound: C/C=C1\NC(=O)[C@H]2CSSCC/C=C\[C@H](CC(=O)N[C@H](C(C)C)C(=O)N2)OC(=O)[C@H](C(C)C)NC1=O
cell viability (%): 3.14

Prompt: Form entry - test system: SEM cells; read-out: cell viability; compound: COC1=CC2=NC=CC(=C2C=C1)OC3=CN=C(NC(=O)C/4=C(C)/N(CC(C)(C)O)N(C4=O)C5=CC=CC=C5)C=C3
Response: 36

Prompt: Form entry - test system: SEM cells; read-out: cell viability; compound: OC[C@H]1O[C@@H](O[C@@H]2[C@@H](CO)O[C@](O)(CO)[C@H]2O)[C@H](O)[C@@H](O)[C@H]1O
Response: 68.9

Prompt: Form entry - test system: SEM cells; read-out: cell viability; compound: C[C@]\12CC[C@H](O)CC1=C/CC3C2CC[C@@]\4(C)C3C\C=C4[N]5C=NC6=C5C=CC=C6 (stereo partly drawn)
Response: 113

Prompt: Form entry - test system: SEM cells; read-out: cell viability; compound: Oc1ccc2c3c1O[C@H]1c4[nH]c5c(c4C[C@@]4(O)[C@@H](C2)N(CC2CC2)CC[C@]314)C[C@@]1(O)[C@H]2Cc3ccc(O)c4c3[C@@]1(CCN2CC1CC1)[C@H]5O4
Response: 119

* * *

Form field: cell viability (one value per entry).
- Test system: P12-Ichikawa
- test: cell viability relative to DMSO control; higher = less cytotoxic
- testParameters: HPLM + 10% dialyzed FBS; 48 h; 1.71 µM
The reply should contain only the number, in %.

compound: CC1=CC=CC=C1N2\C(=N/C3=C(C(=CC=C3)C)C2=O)C[N]4C=NC5=C4N=CN=C5N
cell viability / %: 106

Okay, next one:
Prompt: // returns reported cell viability for input NC(=O)c1cnc(N[C@@H]2CCCC[C@@H]2N)nc1Nc1cccc(-n2nccn2)c1
Response: 128

* * *

- Test system: NOMO1
- test: cell viability relative to DMSO control; higher = less cytotoxic
- testParameters: RPMI 5 mM glucose + 10% dialyzed FBS; 48 h; 46.1 µM
observable: cell viability (%)
The reply should contain only the number, in %.

Prompt: // returns reported cell viability for input COC(=O)Nc1nc2cc(C(=O)c3cccs3)ccc2[nH]1
Response: 42.2

Prompt: // returns reported cell viability for input OC1=CC=C(C=C1)\C2=C\OC3=C(C=CC(=C3)O)C2=O
Response: 94.5

Prompt: // returns reported cell viability for input O=C(OC)[C@]12CC[C@@]3(C)[C@]4(C)CC[C@H]5[C@@](C)(C)C(=O)C(=C[C@]5(C)C4=CC(=O)[C@@H]3[C@@H]2C[C@](C)(C)CC1)C#N
Response: 2.7

Prompt: // returns reported cell viability for input CNC(=O)c1ccc(-c2cnc3ncc(Cc4ccc5ncccc5c4)n3n2)cc1F
Response: 145

Prompt: // returns reported cell viability for input CC(C)NCC(O)COc1ccc(COCCOC(C)C)cc1 (centres undefined)
Response: 88.7

Prompt: // returns reported cell viability for input COc1ccc(-c2cc3nccn3c(Nc3ncccc3C(N)=O)n2)cc1OC
Response: 101

Prompt: // returns reported cell viability for input CC(NC1=CC=CC=C1)C\2=C\C(=C/N3C(=O)\C=C(/N=C23)N4CCOCC4)C (centres undefined)
Response: 83

Prompt: // returns reported cell viability for input CC1(C)CC(=O)c2c(C(F)(F)F)nn(-c3ccc(C(N)=O)c(NC4CCC(O)CC4)c3)c2C1 (centres undefined)
Response: 80.6

Prompt: // returns reported cell viability for input COc1ccc(C[C@@H](C)[C@@H](C)Cc2ccc(OC)c(OC)c2)cc1OC
Response: 7.7
